System: panel of more than 300 wild-type and mutant kinases (313 kinase panel)
Experiment: Kinase profiling in a biochemical assay panel (mobility shift assays and ELISA), %-inhibition at 1 μM; selectivity entropy
Conditions: kinase EML4-ALK; compound at 1 μM
Quick reference for %-inhibition of EML4-ALK among some compounds
attribute.measured: %-inhibition of EML4-ALK (%)

[[record]]
compound = "CNC(=O)c1cc(Oc2ccc(NC(=O)Nc3ccc(Cl)c(C(F)(F)F)c3)c(F)c2)ccn1"
attribute_measured = "%-inhibition of EML4-ALK"
units_symbol = "%"
result_number = -7

[[record]]
compound = "CC(C)(C)c1nc(-c2cccc(NS(=O)(=O)c3c(F)cccc3F)c2F)c(-c2ccnc(N)n2)s1"
attribute_measured = "%-inhibition of EML4-ALK"
units_symbol = "%"
result_number = -1.11

[[record]]
compound = "COc1cc2nccc(Oc3ccc(NC(=O)C4(C(=O)Nc5ccc(F)cc5)CC4)cc3)c2cc1OC [cabozantinib]"
attribute_measured = "%-inhibition of EML4-ALK"
units_symbol = "%"
result_number = 17

[[record]]
compound = "CCCS(=O)(=O)Nc1ccc(F)c(C(=O)c2c[nH]c3ncc(-c4ccc(Cl)cc4)cc23)c1F"
attribute_measured = "%-inhibition of EML4-ALK"
units_symbol = "%"
result_number = -1.53

[[record]]
compound = "CC(=O)Nc1cccc(-n2c(=O)n(C3CC3)c(=O)c3c(Nc4ccc(I)cc4F)n(C)c(=O)c(C)c32)c1"
attribute_measured = "%-inhibition of EML4-ALK"
units_symbol = "%"
result_number = -2.51

[[record]]
compound = "CO[C@H]1C[C@@H]2CC[C@@H](C)[C@@](O)(O2)C(=O)C(=O)N2CCCC[C@H]2C(=O)O[C@H]([C@H](C)C[C@@H]2CC[C@@H](OCCO)[C@H](OC)C2)CC(=O)[C@H](C)/C=C(\\C)[C@@H](O)[C@@H](OC)C(=O)[C@H](C)C[C@H](C)/C=C/C=C/C=C/1C"
attribute_measured = "%-inhibition of EML4-ALK"
units_symbol = "%"
result_number = -3.62

[[record]]
compound = "CO[C@H]1C[C@@H]2CC[C@@H](C)[C@@](O)(O2)C(=O)C(=O)N2CCCC[C@H]2C(=O)O[C@H]([C@H](C)C[C@@H]2CC[C@@H](OC(=O)C(C)(CO)CO)[C@H](OC)C2)CC(=O)[C@H](C)/C=C(\\C)[C@@H](O)[C@@H](OC)C(=O)[C@H](C)C[C@H](C)/C=C/C=C/C=C/1C"
attribute_measured = "%-inhibition of EML4-ALK"
units_symbol = "%"
result_number = -7


====

Target: panel of more than 300 wild-type and mutant kinases (313 kinase panel) (Homo sapiens, UniProt P07948)
Test: Kinase profiling in a biochemical assay panel (mobility shift assays and ELISA), %-inhibition at 1 μM; selectivity entropy
Conditions: kinase LYNa; compound at 1 μM
Quick reference for %-inhibition of LYNa among some compounds
attribute.measured: %-inhibition of LYNa (%)

[[record]]
compound = "N#CC[C@H](C1CCCC1)n1cc(-c2ncnc3[nH]ccc23)cn1"
result_number = 13

[[record]]
compound = "Cc1ccc(C(=O)Nc2ccc(CN3CCN(C)CC3)c(C(F)(F)F)c2)cc1C#Cc1cnc2cccnn12"
result_number = 100

[[record]]
compound = "COc1cc(Nc2c(C#N)cnc3cc(OCCCN4CCN(C)CC4)c(OC)cc23)c(Cl)cc1Cl"
result_number = 93

[[record]]
compound = "CO[C@H]1C[C@@H]2CC[C@@H](C)[C@@](O)(O2)C(=O)C(=O)N2CCCC[C@H]2C(=O)O[C@H]([C@H](C)C[C@@H]2CC[C@@H](OC(=O)C(C)(CO)CO)[C@H](OC)C2)CC(=O)[C@H](C)/C=C(\\C)[C@@H](O)[C@@H](OC)C(=O)[C@H](C)C[C@H](C)/C=C/C=C/C=C/1C"
result_number = -4.48

[[record]]
compound = "O=S(=O)(c1cccc2cnccc12)N1CCCNCC1"
result_number = -1.61

[[record]]
compound = "CO[C@H]1C[C@@H]2CC[C@@H](C)[C@@](O)(O2)C(=O)C(=O)N2CCCC[C@H]2C(=O)O[C@H]([C@H](C)C[C@@H]2CC[C@@H](OCCO)[C@H](OC)C2)CC(=O)[C@H](C)/C=C(\\C)[C@@H](O)[C@@H](OC)C(=O)[C@H](C)C[C@H](C)/C=C/C=C/C=C/1C"
result_number = -1.27

[[record]]
compound = "Cc1cn(-c2cc(NC(=O)c3ccc(C)c(Nc4nccc(-c5cccnc5)n4)c3)cc(C(F)(F)F)c2)cn1"
result_number = 85

[[record]]
compound = "COc1cc2c(Nc3ccc(Br)cc3F)ncnc2cc1OCC1CCN(C)CC1"
result_number = 93

[[record]]
compound = "CC(=O)Nc1cccc(-n2c(=O)n(C3CC3)c(=O)c3c(Nc4ccc(I)cc4F)n(C)c(=O)c(C)c32)c1"
result_number = -1.74

[[record]]
compound = "CCCS(=O)(=O)Nc1ccc(F)c(C(=O)c2c[nH]c3ncc(-c4ccc(Cl)cc4)cc23)c1F"
result_number = 73

[[record]]
compound = "C[C@@H](Oc1cc(-c2cnn(C3CCNCC3)c2)cnc1N)c1c(Cl)ccc(F)c1Cl"
result_number = 42

[[record]]
compound = "CNC(=O)c1cc(Oc2ccc(NC(=O)Nc3ccc(Cl)c(C(F)(F)F)c3)c(F)c2)ccn1"
result_number = 89

[[record]]
compound = "Cc1ccc(Nc2nccc(N(C)c3ccc4c(C)n(C)nc4c3)n2)cc1S(N)(=O)=O"
result_number = 84

[[record]]
compound = "COc1cc2nccc(Oc3ccc(NC(=O)C4(C(=O)Nc5ccc(F)cc5)CC4)cc3)c2cc1OC [cabozantinib]"
result_number = 100

